- testSystem: GRASP, Q7Z6J2
- Sequence (Q7Z6J2 96-193): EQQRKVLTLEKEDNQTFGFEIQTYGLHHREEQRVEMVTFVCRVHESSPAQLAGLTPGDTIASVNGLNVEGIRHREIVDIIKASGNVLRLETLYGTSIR
- assayDetails: holdup assay
- Parameters: key: below the threshold = too weak to quantify, mostly under pKd 3.1 to 4
- experimentalParameters: plain residues with an end cap or a label only (N-terminal biotin on a linker: ado-ado)

[
  {
    "binder": "TKDKVQETQI [LRRC4, Q9HBW1]",
    "pKd": "below the threshold"
  },
  {
    "binder": "GDSSRKEYFI [GYPC, P04921]",
    "pKd": "below the threshold"
  },
  {
    "binder": "DAAHHDESNC [FMNL3, Q8IVF7]",
    "pKd": "below the threshold"
  },
  {
    "binder": "KKTPVSRSHL [SLC22A3, O75751]",
    "pKd": 4.38
  },
  {
    "binder": "ELKAEDEVQI [DCHS2, Q6V1P9]",
    "pKd": "below the threshold"
  },
  {
    "binder": "LPPPESESKV [KCNJ9, Q92806]",
    "pKd": "below the threshold"
  },
  {
    "binder": "VISSDDLTEL [CAPN6, Q9Y6Q1]",
    "pKd": 4.21
  },
  {
    "binder": "DLLGGGSDSI [TNRC6B, Q9UPQ9]",
    "pKd": "below the threshold"
  },
  {
    "binder": "KPDKQEEFYA [SDC3, O75056]",
    "pKd": "below the threshold"
  },
  {
    "binder": "WAKEKQHTRL [SLC17A1, Q14916]",
    "pKd": 4.71
  },
  {
    "binder": "VCMGDHWFDV [PRKN, O60260]",
    "pKd": 3.53
  },
  {
    "binder": "GVHSNDHSVV [LPAR1, Q92633]",
    "pKd": 4.47
  },
  {
    "binder": "GNDPDRGTSI [GRID2, O43424]",
    "pKd": "below the threshold"
  },
  {
    "binder": "DFKHTKSFII [JAM2, P57087]",
    "pKd": "below the threshold"
  },
  {
    "binder": "PAALPESTHM [SLC9A3, P48764]",
    "pKd": "below the threshold"
  },
  {
    "binder": "STYCDYTIEI [FAM71C, Q8NEG0]",
    "pKd": 3.69
  }
]
